Entries and their % Inhibition values follow.
- System: GABAA
- Procedure Summary: In vitro profiling, binding assay
- Set-up: species or system rat
- Test Context: 30 µM

Molecule	% Inhibition (%)
O=C(O)/C=C/c1ccc(O)c(O)c1 [CA, caffeic acid]	18
COc1cc(/C=C/C(=O)O)ccc1O [FA, ferulic acid]	1
COc1cc(/C=C/C(=O)O[C@H]2C[C@@](O)(C(=O)O)C[C@H](O)[C@@H]2O)ccc1O [5-FQA, 5-O-feruloylquinic acid]	15
O=C(/C=C/c1ccc(O)c(O)c1)O[C@H]1C[C@@](O)(C(=O)O)C[C@H](O)[C@@H]1O [5-CQA, 5-O-caffeoylquinic acid]	8

---

- Test system: isolated perfused guinea pig heart
- Procedure Summary: Langendorff perfused heart assay
- Test Context: laboratory background data of drugs; n = 3
- Protocol: After injection of heparin sodium (100 unit/body, AY Pharmaceuticals Co., Ltd.) into the jugular vein, the animals were exsanguinated. […] An ECG signal was recorded using electrodes fixed on the ventricular apex (+), and a stainless-steel cannula was inserted in the aorta (−), and LVP was recorded from the balloon catheter placed in the left ventricle. […] Both of the waveforms were recorded with computer software (1000 Hz; iox2 and ecgAUTO3; emka Technologies). […] Data are expressed as mean (± SD). […]
Label rule, in plain words: Lowest concentration indicating statistically significant % change to solvent control, PR of 3 µM and up is fulfilled, under 3 µM is not fulfilled.

Compound	Class Label
Cc1nccn1CC1CCc2c(c3ccccc3n2C)C1=O (centres unmarked) [Ondansetron]	fulfilled
CN(CCOc1ccc(NS(C)(=O)=O)cc1)CCc1ccc(NS(C)(=O)=O)cc1 [Dofetilide]	not fulfilled
O=C(O[C@@H]1C[C@@H]2C[C@H]3C[C@H](C1)N2CC3=O)c1c[nH]c2ccccc12 [Dolasetron]	not fulfilled
COc1c(N2C[C@@H]3CCCN[C@@H]3C2)c(F)cc2c(=O)c(C(=O)O)cn(C3CC3)c12 [Moxifloxacin]	fulfilled

---

- System: Calcium Channel L-Type, Phenylalkylamine
- Procedure Summary: In vitro profiling, binding assay
- Parameters: species or system rat
- Test Context: 30 µM
Measure: % Inhibition

Smiles Representation	Result
O=C(O)/C=C/c1ccc(O)c(O)c1	21%
O=C(/C=C/c1ccc(O)c(O)c1)O[C@H]1C[C@@](O)(C(=O)O)C[C@H](O)[C@@H]1O	14%
COc1cc(/C=C/C(=O)O)ccc1O	26%
COc1cc(/C=C/C(=O)O[C@H]2C[C@@](O)(C(=O)O)C[C@H](O)[C@@H]2O)ccc1O	19%

---

- Tested on: isolated perfused guinea pig heart
- Procedure Summary: Langendorff perfused heart assay
- Test Context: laboratory background data of drugs; n = 3
Measure: Lowest concentration indicating statistically significant % change to solvent control, HR

Compound	System Name	Result
O=C(O[C@@H]1C[C@@H]2C[C@H]3C[C@H](C1)N2CC3=O)c1c[nH]c2ccccc12	isolated perfused guinea pig heart	1 µM
Cc1nccn1CC1CCc2c(c3ccccc3n2C)C1=O (centres unmarked)	isolated perfused guinea pig heart	1 µM
COc1c(N2C[C@@H]3CCCN[C@@H]3C2)c(F)cc2c(=O)c(C(=O)O)cn(C3CC3)c12	isolated perfused guinea pig heart	30 µM
C=C[C@H]1C[N@@]2CC[C@H]1C[C@H]2[C@H](O)c1ccnc2ccc(OC)cc12	isolated perfused guinea pig heart	1 µM
CN(CCOc1ccc(NS(C)(=O)=O)cc1)CCc1ccc(NS(C)(=O)=O)cc1 [Dofetilide]	isolated perfused guinea pig heart	0.001 µM

---

Entries and their Lowest concentration indicating statistically significant % change to solvent control, QTc values follow.
- Test system: isolated perfused guinea pig heart
- Procedure Summary: Langendorff perfused heart assay
- Test Context: laboratory background data of drugs; n = 3
Measure: Lowest concentration indicating statistically significant % change to solvent control, QTc

Compound	Result
Cc1nccn1CC1CCc2c(c3ccccc3n2C)C1=O (stereo not shown)	1 µM
C=C[C@H]1C[N@@]2CC[C@H]1C[C@H]2[C@H](O)c1ccnc2ccc(OC)cc12	1 µM
COc1c(N2C[C@@H]3CCCN[C@@H]3C2)c(F)cc2c(=O)c(C(=O)O)cn(C3CC3)c12	3 µM
CN(CCOc1ccc(NS(C)(=O)=O)cc1)CCc1ccc(NS(C)(=O)=O)cc1 [Dofetilide]	0.001 µM

---

Entries and their % Inhibition values follow.
- Test system: Sodium Channel
- Procedure Summary: In vitro profiling, binding assay
- Set-up: species or system rat
- Test Context: 30 µM

Smiles Representation	Unit Tag	% Inhibition
COc1cc(/C=C/C(=O)O[C@H]2C[C@@](O)(C(=O)O)C[C@H](O)[C@@H]2O)ccc1O	%	10
COc1cc(/C=C/C(=O)O)ccc1O	%	5
O=C(O)/C=C/c1ccc(O)c(O)c1	%	1
O=C(/C=C/c1ccc(O)c(O)c1)O[C@H]1C[C@@](O)(C(=O)O)C[C@H](O)[C@@H]1O	%	19

---

- System Name: hERG potassium channel (Homo sapiens, UniProt Q12809)
- Sequence (Q12809 whole entry): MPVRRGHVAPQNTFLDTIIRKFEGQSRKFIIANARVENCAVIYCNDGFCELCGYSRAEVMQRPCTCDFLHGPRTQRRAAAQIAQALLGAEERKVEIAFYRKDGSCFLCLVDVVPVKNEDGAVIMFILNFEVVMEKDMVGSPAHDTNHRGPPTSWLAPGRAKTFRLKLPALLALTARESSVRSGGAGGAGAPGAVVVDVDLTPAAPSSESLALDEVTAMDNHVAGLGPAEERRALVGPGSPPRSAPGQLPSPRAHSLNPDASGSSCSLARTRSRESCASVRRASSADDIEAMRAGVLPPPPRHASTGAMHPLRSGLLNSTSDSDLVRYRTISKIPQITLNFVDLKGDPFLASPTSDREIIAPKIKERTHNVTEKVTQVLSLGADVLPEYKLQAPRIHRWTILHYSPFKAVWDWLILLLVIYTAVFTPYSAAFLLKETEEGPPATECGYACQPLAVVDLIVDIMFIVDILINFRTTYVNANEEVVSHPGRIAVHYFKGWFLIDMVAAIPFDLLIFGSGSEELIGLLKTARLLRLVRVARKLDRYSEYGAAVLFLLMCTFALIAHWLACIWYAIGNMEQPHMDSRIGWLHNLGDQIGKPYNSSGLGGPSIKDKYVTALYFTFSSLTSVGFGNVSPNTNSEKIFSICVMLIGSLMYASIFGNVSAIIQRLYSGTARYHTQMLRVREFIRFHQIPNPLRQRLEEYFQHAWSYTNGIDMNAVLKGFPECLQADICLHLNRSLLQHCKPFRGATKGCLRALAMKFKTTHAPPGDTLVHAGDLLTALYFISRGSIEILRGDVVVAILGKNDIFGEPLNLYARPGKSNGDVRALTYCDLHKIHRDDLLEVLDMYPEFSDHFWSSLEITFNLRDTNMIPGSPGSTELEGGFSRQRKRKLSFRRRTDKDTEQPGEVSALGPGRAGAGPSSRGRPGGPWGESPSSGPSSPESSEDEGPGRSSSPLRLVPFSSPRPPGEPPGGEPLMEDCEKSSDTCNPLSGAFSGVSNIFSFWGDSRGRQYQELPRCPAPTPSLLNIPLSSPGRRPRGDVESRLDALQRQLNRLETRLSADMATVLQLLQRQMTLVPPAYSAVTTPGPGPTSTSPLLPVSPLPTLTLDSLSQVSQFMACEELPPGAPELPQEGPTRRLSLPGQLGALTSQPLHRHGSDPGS
- Procedure Summary: In vitro profiling, binding assay
- Test Context: probe radioisotope-labeled high-affinity ligand (not named), 30 µM, Potassium Channel hERG, read-out: % Inhibition
Measure: inhibition at 30 µM (%)

Smiles Representation	Numeric Value
COc1cc(/C=C/C(=O)O[C@H]2C[C@@](O)(C(=O)O)C[C@H](O)[C@@H]2O)ccc1O	6
O=C(/C=C/c1ccc(O)c(O)c1)O[C@H]1C[C@@](O)(C(=O)O)C[C@H](O)[C@@H]1O	3

---

- Tested on: Phosphodiesterase PDE4
- Procedure Summary: In vitro profiling, functional assay
- Assay type: biochemical, human
- Test Context: 30 µM

Smiles Representation	% Inhibition (%)
COc1cc(/C=C/C(=O)O)ccc1O	7
O=C(/C=C/c1ccc(O)c(O)c1)O[C@H]1C[C@@](O)(C(=O)O)C[C@H](O)[C@@H]1O	−6
O=C(O)/C=C/c1ccc(O)c(O)c1	4
COc1cc(/C=C/C(=O)O[C@H]2C[C@@](O)(C(=O)O)C[C@H](O)[C@@H]2O)ccc1O	2

---

- Test system: Calcium Channel L-Type, Dihydropyridine
- Procedure Summary: In vitro profiling, binding assay
- Set-up: species or system rat
- Test Context: 30 µM
Entries and their % Inhibition values follow.

Smiles Representation	% Inhibition, %
COc1cc(/C=C/C(=O)O)ccc1O	1
COc1cc(/C=C/C(=O)O[C@H]2C[C@@](O)(C(=O)O)C[C@H](O)[C@@H]2O)ccc1O	6
O=C(/C=C/c1ccc(O)c(O)c1)O[C@H]1C[C@@](O)(C(=O)O)C[C@H](O)[C@@H]1O	1
O=C(O)/C=C/c1ccc(O)c(O)c1	7

---

- System Name: hERG potassium channel (Homo sapiens, UniProt Q12809)
- Procedure Summary: In vitro profiling, binding assay
- Test Context: 30 µM, Potassium Channel hERG, read-out: % Inhibition

Smiles Representation	System Name	Unit Tag	inhibition at 30 µM
COc1cc(/C=C/C(=O)O)ccc1O	hERG potassium channel (Homo sapiens, UniProt Q12809)	%	7

---

- Test system: Glutamate, NMDA
- Procedure Summary: In vitro profiling, binding assay
- Parameters: species or system rat
- Test Context: 30 µM
Measure: % Inhibition (%)

Compound	Unit Tag	Numeric Value
O=C(O)/C=C/c1ccc(O)c(O)c1 [CA, caffeic acid]	%	5
COc1cc(/C=C/C(=O)O)ccc1O [FA, ferulic acid]	%	16
COc1cc(/C=C/C(=O)O[C@H]2C[C@@](O)(C(=O)O)C[C@H](O)[C@@H]2O)ccc1O [5-FQA, 5-O-feruloylquinic acid]	%	10
O=C(/C=C/c1ccc(O)c(O)c1)O[C@H]1C[C@@](O)(C(=O)O)C[C@H](O)[C@@H]1O [5-CQA, 5-O-caffeoylquinic acid]	%	9
